// provenance: ChEMBL document CHEMBL3108683

# Subject of test: UniProt P29473
# Sequence (P29473 whole entry): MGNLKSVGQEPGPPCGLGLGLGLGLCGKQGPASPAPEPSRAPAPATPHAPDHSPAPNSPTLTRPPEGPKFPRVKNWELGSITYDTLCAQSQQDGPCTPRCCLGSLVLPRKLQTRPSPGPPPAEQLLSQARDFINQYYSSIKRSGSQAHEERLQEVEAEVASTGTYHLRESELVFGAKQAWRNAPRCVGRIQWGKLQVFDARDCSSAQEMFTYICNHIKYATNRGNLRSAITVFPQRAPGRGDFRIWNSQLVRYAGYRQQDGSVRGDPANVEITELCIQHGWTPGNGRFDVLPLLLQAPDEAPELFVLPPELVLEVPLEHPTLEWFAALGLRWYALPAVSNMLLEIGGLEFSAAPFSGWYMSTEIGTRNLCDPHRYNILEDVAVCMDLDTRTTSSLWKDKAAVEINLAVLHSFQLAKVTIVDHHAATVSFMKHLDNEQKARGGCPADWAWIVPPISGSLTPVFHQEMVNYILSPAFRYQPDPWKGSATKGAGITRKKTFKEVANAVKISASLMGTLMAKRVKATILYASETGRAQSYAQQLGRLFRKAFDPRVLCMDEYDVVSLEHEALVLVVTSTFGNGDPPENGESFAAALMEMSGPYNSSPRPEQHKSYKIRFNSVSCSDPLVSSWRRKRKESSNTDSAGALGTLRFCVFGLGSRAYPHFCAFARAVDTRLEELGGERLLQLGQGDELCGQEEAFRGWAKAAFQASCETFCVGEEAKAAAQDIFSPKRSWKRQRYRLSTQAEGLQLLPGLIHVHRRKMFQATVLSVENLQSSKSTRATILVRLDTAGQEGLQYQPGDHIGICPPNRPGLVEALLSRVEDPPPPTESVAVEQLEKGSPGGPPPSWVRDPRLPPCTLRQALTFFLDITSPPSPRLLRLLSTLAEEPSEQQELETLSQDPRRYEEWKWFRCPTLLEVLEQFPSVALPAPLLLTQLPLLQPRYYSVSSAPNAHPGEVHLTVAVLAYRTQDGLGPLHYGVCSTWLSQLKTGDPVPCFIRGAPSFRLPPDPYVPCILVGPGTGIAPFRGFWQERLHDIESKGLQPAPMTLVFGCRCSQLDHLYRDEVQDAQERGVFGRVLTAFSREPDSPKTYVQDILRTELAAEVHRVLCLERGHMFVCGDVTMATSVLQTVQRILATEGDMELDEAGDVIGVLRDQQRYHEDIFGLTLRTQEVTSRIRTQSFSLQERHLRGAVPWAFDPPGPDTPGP
# Assay text: Inhibition of bovine recombinant eNOS overexpressed in Escherichia coli using L-arginine as substrate assessed as formation of NO-hemoglobin complex measured up to 180 seconds by hemoglobin capture assay
Value kind: pKi
Answers are plain numbers, as −log10 of the molar value.

Challenge: What value of pKi has been recorded for this entry: Cc1cc(N)nc(COC[C@H]2C[C@H](OCc3cc(C)cc(N)n3)CN2)c1
Response given: 5.17
